- measurement.target: HLA-A*02:01 (Homo sapiens, UniProt P04439, D140Y/D185E/D98H/E176V/E277Q/G131W/G231S/I119V/I121R/I166T/I218V/L300P/L318F/N151K/N90K/P208A/P217A/Q86G/Q94H/R138H/R169H/T345S)
- assay.notes: MHC binding assay (UV-ligand exchange, ELISA of exchange yield)
- experimental.conditions: binding to HLA-A*02:01, UV-ligand exchange
- Text: Candidate peptides for T cell based therapies according to the present invention were further tested for their MHC binding capacity (affinity). The individual peptide-MHC complexes were produced by UV-ligand exchange, where a UV-sensitive peptide is cleaved upon UV-irradiation, and exchanged with the peptide of interest as analyzed. Only peptide candidates that can effectively bind and stabilize the peptide-receptive MHC molecules prevent dissociation of the MHC complexes. […]
value.kind: Peptide exchange (MHC class I binding score, peptide exchange yield)

>>> print(df.to_string())
                                  substance        value_reported
0  509 (FLFDTKPLIV; listed as Homo sapiens) [compound 509]     “+++” (≥50 = +++)
1  322 (TLMTSLPAL; listed as Homo sapiens) [compound 322]     “+++” (≥50 = +++)
2  557 (KLYDDMIRL; listed as Homo sapiens) [compound 557]     “+++” (≥50 = +++)
3  566 (VIADGGIQNV; listed as Homo sapiens) [compound 566]      “++” (≥20% = ++)
4  299 (YLLETSGNL; listed as Homo sapiens) [compound 299]     “+++” (≥50 = +++)
5  53 (KMIETDILQKV; listed as Homo sapiens) [compound 53]  “++++” (≥75% = ++++)
6  207 (GLTSTNAEV; listed as Homo sapiens) [compound 207]      “++” (≥20% = ++)
7  6 (VLVSDGVHSV; listed as Homo sapiens) [compound 6]     “+++” (≥50 = +++)

Lookup: Quick check: Peptide exchange (MHC class I binding score, peptide exchange yield) of 495 (FIFSEKPVFV; listed as Homo sapiens) [compound 495] ?
Found: “+++” (≥50 = +++)

Lookup: Next substance up: 528 (SVAEGRALMSV; listed as Homo sapiens) [compound 528]
Found: “+++” (≥50 = +++)

Lookup: Next substance up: 89 (YILPTETIYV; listed as Homo sapiens) [compound 89]
Found: “++++” (≥75% = ++++)

Lookup: Next substance up: 524 (ALIENLTHQI; listed as Homo sapiens) [compound 524]
Found: “++” (≥20% = ++)

###

- measurement.target: HLA-A*02:01 (Homo sapiens, UniProt P04439, D140Y/D185E/D98H/E176V/E277Q/G131W/G231S/I119V/I121R/I166T/I218V/L300P/L318F/N151K/N90K/P208A/P217A/Q86G/Q94H/R138H/R169H/T345S)
- assay.notes: MHC binding assay (UV-ligand exchange, ELISA of exchange yield)
- experimental.conditions: binding to HLA-A*02:01, UV-ligand exchange
value.kind: Peptide exchange (MHC class I binding score, peptide exchange yield)

                                  substance     value_reported
0  402 (VLFSGALLGL; listed as Homo sapiens) [compound 402]   “++” (≥20% = ++)
1  306 (ALVNVQIPL; listed as Homo sapiens) [compound 306]  “+++” (≥50 = +++)
2  276 (ALFTFSPLTV; listed as Homo sapiens) [compound 276]  “+++” (≥50 = +++)
3  150 (RLWEEGEELEL; listed as Homo sapiens) [compound 150]  “+++” (≥50 = +++)

Lookup: Quick check: Peptide exchange (MHC class I binding score, peptide exchange yield) of 599 (YLLNDASLISV; listed as Homo sapiens) [compound 599] ?
Found: “+++” (≥50 = +++)

Lookup: Next substance up: 26 (ALLELAEEL; listed as Homo sapiens) [compound 26]
Found: “+++” (≥50 = +++)

###

- measurement.target: HLA-A*02:01 (Homo sapiens, UniProt P04439, D140Y/D185E/D98H/E176V/E277Q/G131W/G231S/I119V/I121R/I166T/I218V/L300P/L318F/N151K/N90K/P208A/P217A/Q86G/Q94H/R138H/R169H/T345S)
- assay.notes: MHC binding assay (UV-ligand exchange, ELISA of exchange yield)
- experimental.conditions: binding to HLA-A*02:01, UV-ligand exchange
value.kind: Peptide exchange (MHC class I binding score, peptide exchange yield)

>>> df
                                  substance     value_reported
0  592 (RLLSAAENFL; listed as Homo sapiens) [compound 592]  “+++” (≥50 = +++)
1  431 (SLVNVVPKL; listed as Homo sapiens) [compound 431]   “++” (≥20% = ++)
2  23 (VLLDDIFAQL; listed as Homo sapiens) [compound 23]  “+++” (≥50 = +++)
3  335 (YSLSSVVTV; listed as Homo sapiens) [compound 335]  “+++” (≥50 = +++)
4  512 (SLSEIVPCL; listed as Homo sapiens) [compound 512]  “+++” (≥50 = +++)
5  80 (FLYDNLVESL; listed as Homo sapiens) [compound 80]   “++” (≥20% = ++)

Turning now to a further substance:
Lookup: Quick check: Peptide exchange (MHC class I binding score, peptide exchange yield) of 604 (SILDRDDIFV; listed as Homo sapiens) [compound 604] ?
Found: “+++” (≥50 = +++)

###

- measurement.target: HLA-A*02:01 (Homo sapiens, UniProt P04439, D140Y/D185E/D98H/E176V/E277Q/G131W/G231S/I119V/I121R/I166T/I218V/L300P/L318F/N151K/N90K/P208A/P217A/Q86G/Q94H/R138H/R169H/T345S)
- assay.notes: MHC binding assay (UV-ligand exchange, ELISA of exchange yield)
- experimental.conditions: binding to HLA-A*02:01, UV-ligand exchange
value.kind: Peptide exchange (MHC class I binding score, peptide exchange yield)

>>> print(df.to_string())
                                  substance     value_reported
0  346 (LLDSKVPSV; listed as Homo sapiens) [compound 346]  “+++” (≥50 = +++)
1  173 (LLDSASAGLYL; listed as Homo sapiens) [compound 173]  “+++” (≥50 = +++)

###

- measurement.target: HLA-A*02:01 (Homo sapiens, UniProt P04439, D140Y/D185E/D98H/E176V/E277Q/G131W/G231S/I119V/I121R/I166T/I218V/L300P/L318F/N151K/N90K/P208A/P217A/Q86G/Q94H/R138H/R169H/T345S)
- assay.notes: MHC binding assay (UV-ligand exchange, ELISA of exchange yield)
- experimental.conditions: binding to HLA-A*02:01, UV-ligand exchange
value.kind: Peptide exchange (MHC class I binding score, peptide exchange yield)

Recorded results for 4 substances are shown here.
In [3]: df
Out[3]:
                                  substance     value_reported
0  365 (YVIDQGETDVYV; listed as Homo sapiens) [compound 365]  “+++” (≥50 = +++)
1  405 (ALYDVFLEV; listed as Homo sapiens) [compound 405]   “++” (≥20% = ++)
2  93 (LLQAIKLYL; listed as Homo sapiens) [compound 93]   “++” (≥20% = ++)
3  472 (KLLEVSDDPQV; listed as Homo sapiens) [compound 472]  “+++” (≥50 = +++)

Lookup: Quick check: Peptide exchange (MHC class I binding score, peptide exchange yield) of 547 (TLDITPHTV; listed as Homo sapiens) [compound 547] ?
Found: “+++” (≥50 = +++)

Lookup: Next substance up: 616 (VLIDEVESL; listed as Homo sapiens) [compound 616]
Found: “+++” (≥50 = +++)

Lookup: Next substance up: 315 (YLQDVVEQA; listed as Homo sapiens) [compound 315]
Found: “+++” (≥50 = +++)

Lookup: Next substance up: 591 (SMAELDIKL; listed as Homo sapiens) [compound 591]
Found: “+++” (≥50 = +++)

Lookup: Next substance up: 113 (GLLPTPLFGV; listed as Homo sapiens) [compound 113]
Found: “+++” (≥50 = +++)
